RESULT_TYPE: melting point

[[record]]
compound = "CCOC(=O)c1cnn2c1N(C(=O)CCl)CC=C2c1cccc(C(F)(F)F)c1"
test_value = "141 to 142 °C"

[[record]]
compound = "Cc1sc(C(N)=O)c2c1-c1c(cnn1C)CC2"
test_value = "184 to 185 °C"

[[record]]
compound = "CCCCC(Cc1ccc(OCCNC(=O)c2ccc(-c3ccc(C=O)cc3)cc2)cc1)C(=O)O (centres undefined)"
test_value = "122 to 124 °C"


The reported value for `CC(=C(Br)Br)c1cn(-c2c(Cl)cc(C(F)(F)F)cc2Cl)nc1C#N` in terms of melting point is 119 to 122 °C

The reported value for CC(CSC(=O)c1ccccc1)C(=O)N1C(C(=O)O)CC2CCCCC21 (centres undefined) in terms of melting point is 184 to 186 °C

The reported value for `Cc1cnc(CNC(=O)c2sc(-n3cnn(Cc4ccc(F)cc4)c3=O)nc2C)cn1` in terms of melting point is 188 to 189 °C

The reported value for `O=C(O)c1cccc(-c2cccc(OCCc3cccc(C(F)(F)F)c3)n2)c1` in terms of melting point is 135 to 136 °C

The reported value for CC(C)=CCNc1ncnc2c1nc(N)n2C1OC(CO)C(O)C1O (centres undefined) in terms of melting point is 121 to 124 °C

The reported value for COCCOCCN1C(=O)C2(COc3cc4c(cc32)OCCO4)c2c(OC)cc(OC)cc21 (centres undefined) in terms of melting point is 158 to 160 °C
